Record form. Attribute: ED50. Fill in for each entry.
# Organism: Mus musculus
# EXPERIMENT_NOTES: Effective dose of compound required to inhibit N-methyl D-aspartate induced seizures in mice
# Type: functional
Note: unit mg/kg is implicit; provide only the numeric part.

Prompt line: Reported ED50, molecule NCc1ccc(NC(=O)C[C@@H]2CCc3cc(Cl)cc4[nH]c(C(=O)O)c2c34)c(OCC(=O)O)c1 (stereo in doubt; 3a) : ____
Response line: 5

Prompt line: Lookup C[C@@H](C(=O)O)c1cc(CN)ccc1NC(=O)C[C@@H]1CCc2cc(Cl)cc3[nH]c(C(=O)O)c1c23
Response line: 2.3

Prompt line: Lookup NCc1ccc(NC(=O)C[C@@H]2CCc3cc(Cl)cc4[nH]c(C(=O)O)c2c34)c(CC(=O)O)c1
Response line: 1.8

Prompt line: Lookup NCc1ccc(NC(=O)C[C@@H]2CCc3cc(Cl)cc4[nH]c(=O)c(=O)n2c34)c(OCC(=O)O)c1
Response line: 0.41

Prompt line: Lookup C[C@H](C(=O)O)c1cc(CN)ccc1NC(=O)C[C@@H]1CCc2cc(Cl)cc3[nH]c(C(=O)O)c1c23
Response line: 3.7

---

# MEASUREMENT_TARGET: Glutamate receptor ionotropic, kainate
# EXPERIMENT_NOTES: Binding affinity for non-NMDA receptor determined by displacement of [3H]- KA (kainic acid) in rat cortical membranes
pKi: −log10 of the molar value.
OUTCOME_MEASURE: pKi

Prompt line: Missing value: pKi, Glutamate receptor ionotropic, kainate, entry C[C@@H](C(=O)O)c1cc(CN)ccc1NC(=O)C[C@@H]1CCc2cc(Cl)cc3[nH]c(C(=O)O)c1c23 . Fill in?
Response line: < 5.00

---

# MEASUREMENT_TARGET: Glutamate receptor ionotropic, NMDA 1 (Rattus norvegicus)
# EXPERIMENT_NOTES: Binding affinity for glycine site of N-methyl-D-aspartate glutamate receptor determined by displacement of [3H]- DCKA (5,7-dichlorokynurenic acid) in rat cortical membranes
# Type: cell membranes, Membrane
OUTCOME_MEASURE: Ki (nM)
Note: unit nM is implicit; provide only the numeric part.

Prompt line: Reported Ki, compound C[C@@H](C(=O)O)c1cc(CN)ccc1NC(=O)C[C@@H]1CCc2cc(Cl)cc3[nH]c(C(=O)O)c1c23 : ____
Response line: 1

---

# MEASUREMENT_TARGET: UniProt P35439
# EXPERIMENT_NOTES: Binding affinity for glycine site of N-methyl-D-aspartate glutamate receptor determined by displacement of [3H]- glycine in rat cortical membranes
# Assay type: cell membranes, Membrane
OUTCOME_MEASURE: pKi
In textbook form, pKi equals minus log to base ten of the concentration in mol/L.

Prompt line: Reported pKi, molecule C[C@@H](C(=O)O)c1cc(CN)ccc1NC(=O)C[C@@H]1CCc2cc(Cl)cc3[nH]c(C(=O)O)c1c23 : ____
Response line: 7.96

---

Record form. Attribute: No. of protected/tested. Fill in for each entry.
# System: Mus musculus
# EXPERIMENT_NOTES: Number of mice protected from tonic seizures to that of number tested was determined when compound (3 mg/kg) was administered intravenously to 10 mice
# Type: functional
Lab note: write the figure by itself, no unit.

Prompt line: Reported No. of protected/tested, compound NCc1ccc(NC(=O)C[C@@H]2CCc3cc(Cl)cc4[nH]c(C(=O)O)c2c34)c(OCC(=O)O)c1 (stereo in doubt; 3a) : ____
Response line: 2

Prompt line: Lookup C[C@@H](C(=O)O)c1cc(CN)ccc1NC(=O)C[C@@H]1CCc2cc(Cl)cc3[nH]c(C(=O)O)c1c23
Response line: 5

Prompt line: Lookup C[C@H](C(=O)O)c1cc(CN)ccc1NC(=O)C[C@@H]1CCc2cc(Cl)cc3[nH]c(C(=O)O)c1c23
Response line: 4

Prompt line: Lookup NCc1ccc(NC(=O)C[C@@H]2CCc3cc(Cl)cc4[nH]c(C(=O)O)c2c34)c(CC(=O)O)c1
Response line: 5

Prompt line: Lookup NCc1ccc(NC(=O)C[C@@H]2CCc3cc(Cl)cc4[nH]c(C(=O)O)c2c34)cc1
Response line: 3

Prompt line: Lookup O=C(O)Cc1ccccc1NC(=O)C[C@@H]1CCc2cc(Cl)cc3[nH]c(C(=O)O)c1c23
Response line: 3

Prompt line: Lookup O=C(C[C@@H]1CCc2cc(Cl)cc3[nH]c(C(=O)O)c1c23)Nc1ccccc1
Response line: 3

Prompt line: Lookup NCc1ccc(NC(=O)C[C@@H]2CCc3cc(Cl)cc4[nH]c(=O)c(=O)n2c34)c(OCC(=O)O)c1
Response line: 10
